System: LNCaP xenograft
Assay: Biodistribution of 68Ga-labeled compounds in mice bearing LNCaP xenograft
Type: in vivo
Details: Spleen, 1 h p.i.
test readout: Biodistribution, Spleen (Avg) (% ID/g)
The answer is to be given in % ID/g; state only the numeric part.

O=C(O)CSCC(NC(=O)NC(Cc1ccc(NC(=O)C(Cc2c3ccccc3cc3ccccc23)NC(=O)C2CCC(CNC(=O)CN3CCN(CC(=O)O)CCN(CC(=O)O)CCN(CC(=O)O)CC3)CC2)cc1)C(=O)O)C(=O)O.[68Ga] (centres unmarked) [^68Ga-CCZ01188] | 0.61

API: the following record is the query input.
stdin: Request the reported Biodistribution, Spleen (Avg) associated with O=C(O)CCCC(NC(=O)NC(COCCNC(=O)C(Cc1c2ccccc2cc2ccccc12)NC(=O)C1CCC(CNC(=O)CN2CCN(CC(=O)O)CCN(CC(=O)O)CCN(CC(=O)O)CC2)CC1)C(=O)O)C(=O)O.[68Ga] (centres unmarked) [^68Ga-CCZ02011]
stdout: 0.23

====

System: LNCaP xenograft
Assay: Biodistribution of 68Ga-labeled compounds in mice bearing LNCaP xenograft
Format: in vivo
Details: Testes, 1 h p.i.
Text: All chemicals and solvents were obtained from commercial sources, and used without further purification. PSMA-targeted peptides were synthesized using a solid phase approach on an AAPPTec (Louisville, KY) Endeavor 90 peptide synthesizer. […]
test readout: Biodistribution, Testes (Avg) (% ID/g)
The answer is to be given in % ID/g; state only the numeric part.

O=C(O)CSCC(NC(=O)NC(Cc1ccc(NC(=O)C(Cc2c3ccccc3cc3ccccc23)NC(=O)C2CCC(CNC(=O)CN3CCN(CC(=O)O)CCN(CC(=O)O)CCN(CC(=O)O)CC3)CC2)cc1)C(=O)O)C(=O)O.[68Ga] (stereo not shown) [^68Ga-CCZ01188] | 0.82
O=C(O)CSCC(NC(=O)NC(CNC(=O)CNC(=O)C(Cc1c2ccccc2cc2ccccc12)NC(=O)C1CCC(CNC(=O)CN2CCN(CC(=O)O)CCN(CC(=O)O)CCN(CC(=O)O)CC2)CC1)C(=O)O)C(=O)O.[68Ga] (stereo not shown) [68Ga-CCZ01194] | 0.23

stdin: Identify the measured Biodistribution, Testes (Avg) of O=C(O)CSCC(NC(=O)NC(Cc1cn(CCNC(=O)C(Cc2c3ccccc3cc3ccccc23)NC(=O)C2CCC(CNC(=O)CN3CCN(CC(=O)O)CCN(CC(=O)O)CCN(CC(=O)O)CC3)CC2)nn1)C(=O)O)C(=O)O.[68Ga] (stereo not shown) [^68Ga-CCZ01186] for LNCaP xenograft.
stdout: 0.17

stdin: Identify the measured Biodistribution, Testes (Avg) of O=C(O)CCCC(NC(=O)NC(CNC(=O)CNC(=O)C(Cc1c2ccccc2cc2ccccc12)NC(=O)C1CCC(CNC(=O)CN2CCN(CC(=O)O)CCN(CC(=O)O)CCN(CC(=O)O)CC2)CC1)C(=O)O)C(=O)O.[68Ga] (stereo not shown) [68Ga-CCZ01198] for LNCaP xenograft.
stdout: 0.14

====

Test system: LNCaP xenograft
Assay: Biodistribution of 68Ga-labeled compounds in mice bearing LNCaP xenograft
Assay type: in vivo
Settings: Thyroid, 1 h p.i.
test readout: Biodistribution, Thyroid (Avg) (% ID/g)
The answer is to be given in % ID/g; state only the numeric part.

stdin: Request the reported Biodistribution, Thyroid (Avg) associated with O=C(O)CCCC(NC(=O)NC(COCCNC(=O)C(Cc1c2ccccc2cc2ccccc12)NC(=O)C1CCC(CNC(=O)CN2CCN(CC(=O)O)CCN(CC(=O)O)CCN(CC(=O)O)CC2)CC1)C(=O)O)C(=O)O.[68Ga] (stereo not drawn) [^68Ga-CCZ02011]
stdout: 0.16

stdin: Request the reported Biodistribution, Thyroid (Avg) associated with O=C(O)CSCC(NC(=O)NC(Cc1ccc(NC(=O)C(Cc2c3ccccc3cc3ccccc23)NC(=O)C2CCC(CNC(=O)CN3CCN(CC(=O)O)CCN(CC(=O)O)CCN(CC(=O)O)CC3)CC2)cc1)C(=O)O)C(=O)O.[68Ga] (stereo not drawn) [^68Ga-CCZ01188]
stdout: 0.67

stdin: Request the reported Biodistribution, Thyroid (Avg) associated with O=C(O)CCCC(NC(=O)NC(CNC(=O)CNC(=O)C(Cc1c2ccccc2cc2ccccc12)NC(=O)C1CCC(CNC(=O)CN2CCN(CC(=O)O)CCN(CC(=O)O)CCN(CC(=O)O)CC2)CC1)C(=O)O)C(=O)O.[68Ga] (stereo not drawn) [68Ga-CCZ01198]
stdout: 0.13

stdin: Request the reported Biodistribution, Thyroid (Avg) associated with O=C(O)CCCC(NC(=O)NC(CCCONC(=O)C(Cc1c2ccccc2cc2ccccc12)NC(=O)C1CCC(CNC(=O)CN2CCN(CC(=O)O)CCN(CC(=O)O)CCN(CC(=O)O)CC2)CC1)C(=O)O)C(=O)O.[68Ga] (stereo not drawn) [^68Ga-CCZ02018]
stdout: 0.20

stdin: Request the reported Biodistribution, Thyroid (Avg) associated with O=C(O)CSCC(NC(=O)NC(CNC(=O)CNC(=O)C(Cc1c2ccccc2cc2ccccc12)NC(=O)C1CCC(CNC(=O)CN2CCN(CC(=O)O)CCN(CC(=O)O)CCN(CC(=O)O)CC2)CC1)C(=O)O)C(=O)O.[68Ga] (stereo not drawn) [68Ga-CCZ01194]
stdout: 0.29

stdin: Request the reported Biodistribution, Thyroid (Avg) associated with O=C(O)CSCC(NC(=O)NC(Cc1cn(CCNC(=O)C(Cc2c3ccccc3cc3ccccc23)NC(=O)C2CCC(CNC(=O)CN3CCN(CC(=O)O)CCN(CC(=O)O)CCN(CC(=O)O)CC3)CC2)nn1)C(=O)O)C(=O)O.[68Ga] (stereo not drawn) [^68Ga-CCZ01186]
stdout: 2.49

====

Test system: LNCaP xenograft
Test: Biodistribution of 68Ga-labeled compounds in mice bearing LNCaP xenograft
Assay type: in vivo
Conditions: Kidney, 1 h p.i.
test readout: Biodistribution, Kidney (Avg) (% ID/g)
The answer is to be given in % ID/g; state only the numeric part.

O=C(O)CSCC(NC(=O)NC(Cc1cn(CCNC(=O)C(Cc2c3ccccc3cc3ccccc23)NC(=O)C2CCC(CNC(=O)CN3CCN(CC(=O)O)CCN(CC(=O)O)CCN(CC(=O)O)CC3)CC2)nn1)C(=O)O)C(=O)O.[68Ga] (stereo not shown) [^68Ga-CCZ01186] | 2.20

stdin: Request the reported Biodistribution, Kidney (Avg) associated with O=C(O)CSCC(NC(=O)NC(CNC(=O)CNC(=O)C(Cc1c2ccccc2cc2ccccc12)NC(=O)C1CCC(CNC(=O)CN2CCN(CC(=O)O)CCN(CC(=O)O)CCN(CC(=O)O)CC2)CC1)C(=O)O)C(=O)O.[68Ga] (stereo not shown) [68Ga-CCZ01194]
stdout: 7.33

stdin: Request the reported Biodistribution, Kidney (Avg) associated with O=C(O)CCCC(NC(=O)NC(CCCONC(=O)C(Cc1c2ccccc2cc2ccccc12)NC(=O)C1CCC(CNC(=O)CN2CCN(CC(=O)O)CCN(CC(=O)O)CCN(CC(=O)O)CC2)CC1)C(=O)O)C(=O)O.[68Ga] (stereo not shown) [^68Ga-CCZ02018]
stdout: 6.91

stdin: Request the reported Biodistribution, Kidney (Avg) associated with O=C(O)CSCC(NC(=O)NC(Cc1ccc(NC(=O)C(Cc2c3ccccc3cc3ccccc23)NC(=O)C2CCC(CNC(=O)CN3CCN(CC(=O)O)CCN(CC(=O)O)CCN(CC(=O)O)CC3)CC2)cc1)C(=O)O)C(=O)O.[68Ga] (stereo not shown) [^68Ga-CCZ01188]
stdout: 4.02

====

Below, each entry is listed with its recorded Biodistribution, Pancreas (Avg).
Test system: LNCaP xenograft
Test: Biodistribution of 68Ga-labeled compounds in mice bearing LNCaP xenograft
Assay type: in vivo
Conditions: Pancreas, 1 h p.i.
The answer is to be given in % ID/g; state only the numeric part.

O=C(O)CCCC(NC(=O)NC(CCCONC(=O)C(Cc1c2ccccc2cc2ccccc12)NC(=O)C1CCC(CNC(=O)CN2CCN(CC(=O)O)CCN(CC(=O)O)CCN(CC(=O)O)CC2)CC1)C(=O)O)C(=O)O.[68Ga] (stereo not shown) [^68Ga-CCZ02018] | 0.13

stdin: Request the reported Biodistribution, Pancreas (Avg) associated with O=C(O)CCC[C@H](OC(=O)N[C@@H](CCCCNC(=O)[C@H](Cc1c2ccccc2cc2ccccc12)NC(=O)[C@H]1CC[C@H](CNC(=O)CCc2ccc(O)c(CN(CCN(CC(=O)O)Cc3cc(CCC(=O)O)ccc3O)CC(=O)O)c2)CC1)C(=O)O)C(=O)O.[68Ga] [^68Ga-AR-113-1]
stdout: 0.34

stdin: Request the reported Biodistribution, Pancreas (Avg) associated with O=C(O)CSCC(NC(=O)NC(Cc1ccc(NC(=O)C(Cc2c3ccccc3cc3ccccc23)NC(=O)C2CCC(CNC(=O)CN3CCN(CC(=O)O)CCN(CC(=O)O)CCN(CC(=O)O)CC3)CC2)cc1)C(=O)O)C(=O)O.[68Ga] (stereo not shown) [^68Ga-CCZ01188]
stdout: 0.38

stdin: Request the reported Biodistribution, Pancreas (Avg) associated with O=C(O)CSCC(NC(=O)NC(CNC(=O)CNC(=O)C(Cc1c2ccccc2cc2ccccc12)NC(=O)C1CCC(CNC(=O)CN2CCN(CC(=O)O)CCN(CC(=O)O)CCN(CC(=O)O)CC2)CC1)C(=O)O)C(=O)O.[68Ga] (stereo not shown) [68Ga-CCZ01194]
stdout: 0.15

stdin: Request the reported Biodistribution, Pancreas (Avg) associated with O=C(O)CCCC(NC(=O)NC(COCCNC(=O)C(Cc1c2ccccc2cc2ccccc12)NC(=O)C1CCC(CNC(=O)CN2CCN(CC(=O)O)CCN(CC(=O)O)CCN(CC(=O)O)CC2)CC1)C(=O)O)C(=O)O.[68Ga] (stereo not shown) [^68Ga-CCZ02011]
stdout: 0.22

stdin: Request the reported Biodistribution, Pancreas (Avg) associated with O=C(O)CSCC(NC(=O)NC(Cc1cn(CCNC(=O)C(Cc2c3ccccc3cc3ccccc23)NC(=O)C2CCC(CNC(=O)CN3CCN(CC(=O)O)CCN(CC(=O)O)CCN(CC(=O)O)CC3)CC2)nn1)C(=O)O)C(=O)O.[68Ga] (stereo not shown) [^68Ga-CCZ01186]
stdout: 0.16

stdin: Request the reported Biodistribution, Pancreas (Avg) associated with O=C(O)CCCC(NC(=O)NC(CNC(=O)CNC(=O)C(Cc1c2ccccc2cc2ccccc12)NC(=O)C1CCC(CNC(=O)CN2CCN(CC(=O)O)CCN(CC(=O)O)CCN(CC(=O)O)CC2)CC1)C(=O)O)C(=O)O.[68Ga] (stereo not shown) [68Ga-CCZ01198]
stdout: 0.08
